Molecular target: TrkA Kinase (Homo sapiens)
Construct: purchased Millipore (KinaseProfiler service); also Reaction Biology Corp. (Kinase Hotspot)
Sequence (P04629 33-796): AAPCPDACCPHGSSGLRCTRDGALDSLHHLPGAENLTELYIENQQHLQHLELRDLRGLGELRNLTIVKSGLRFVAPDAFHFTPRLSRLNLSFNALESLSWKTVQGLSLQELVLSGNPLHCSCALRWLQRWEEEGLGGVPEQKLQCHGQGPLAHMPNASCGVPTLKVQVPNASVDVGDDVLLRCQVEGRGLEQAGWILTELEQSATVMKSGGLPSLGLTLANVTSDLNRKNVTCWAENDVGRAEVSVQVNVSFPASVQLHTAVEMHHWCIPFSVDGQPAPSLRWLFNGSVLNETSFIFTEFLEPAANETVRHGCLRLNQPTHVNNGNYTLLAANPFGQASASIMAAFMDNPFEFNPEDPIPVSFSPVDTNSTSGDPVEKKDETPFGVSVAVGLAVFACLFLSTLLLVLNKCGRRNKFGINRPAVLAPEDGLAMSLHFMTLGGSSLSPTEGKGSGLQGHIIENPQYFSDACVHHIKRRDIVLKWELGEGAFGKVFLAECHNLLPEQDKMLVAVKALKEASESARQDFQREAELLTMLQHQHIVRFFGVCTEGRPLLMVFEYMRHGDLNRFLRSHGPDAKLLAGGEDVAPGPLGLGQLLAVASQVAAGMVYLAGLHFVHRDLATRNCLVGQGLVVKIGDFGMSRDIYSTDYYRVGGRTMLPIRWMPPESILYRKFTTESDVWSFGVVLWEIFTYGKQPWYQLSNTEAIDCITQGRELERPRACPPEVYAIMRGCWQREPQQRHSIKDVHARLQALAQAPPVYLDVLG
Experiment: TrkA kinase inhibition assay (KinaseProfiler / Kinase Hotspot)
Assay type: biochemical
Conditions: compound at 1 μM
Measured inhibition at 1 µM by item

Here's what some known entries look like.
Lab note: measured inhibition at 1 µM of CN1CCN(c2nc(Nc3cc(-c4ccco4)[nH]n3)nc(OCc3ccccc3)n2)CC1 was > 90%

Lab note: measured inhibition at 1 µM of C[C@H](Nc1nc(Nc2cc(-c3ccco3)[nH]n2)nc(N2CCN(C)CC2)n1)c1ccc(F)cc1 was > 90%

Lab note: measured inhibition at 1 µM of Cc1cnc(Nc2nc(NCc3ccccc3)nc(N3CCN(C)CC3)n2)s1 was > 90%

Lab note: measured inhibition at 1 µM of CN1CCN(c2nc(Nc3cc(-c4ccco4)[nH]n3)nc(SCc3ccc(F)cc3)n2)CC1 was > 90%

Lab note: measured inhibition at 1 µM of CN1CCN(c2nc(NCc3ccccc3)nc(Nc3ncc(-c4ccccc4)s3)n2)CC1 was < 50%

---
Lab note: measured inhibition at 1 µM of CN1CCN(c2nc(Nc3cc(-c4ccco4)[nH]n3)nc(N(C)Cc3ccc(F)cc3)n2)CC1 was > 90%

Lab note: measured inhibition at 1 µM of CC(Nc1nc(Nc2cc(C3CC3)[nH]n2)nc(N2CCN(C)CC2)n1)c1ccc(F)cc1 (stereo not drawn) was 50 to 90%

Lab note: measured inhibition at 1 µM of CC(C)c1cnc(Nc2nc(N[C@H](C)c3ccc(F)cc3)nc(N3CCN(C)CC3)n2)s1 was 50 to 90%

Lab note: measured inhibition at 1 µM of CN1CCN(c2nc(Nc3cc(-c4ccco4)[nH]n3)nc(NC(C)(C)c3ccccc3)n2)CC1 was > 90%

* * *

Target: c-Src kinase (Homo sapiens, UniProt P12931)
Construct: purchased Millipore (KinaseProfiler service); also Reaction Biology Corp. (Kinase Hotspot)
Sequence (P12931 whole entry): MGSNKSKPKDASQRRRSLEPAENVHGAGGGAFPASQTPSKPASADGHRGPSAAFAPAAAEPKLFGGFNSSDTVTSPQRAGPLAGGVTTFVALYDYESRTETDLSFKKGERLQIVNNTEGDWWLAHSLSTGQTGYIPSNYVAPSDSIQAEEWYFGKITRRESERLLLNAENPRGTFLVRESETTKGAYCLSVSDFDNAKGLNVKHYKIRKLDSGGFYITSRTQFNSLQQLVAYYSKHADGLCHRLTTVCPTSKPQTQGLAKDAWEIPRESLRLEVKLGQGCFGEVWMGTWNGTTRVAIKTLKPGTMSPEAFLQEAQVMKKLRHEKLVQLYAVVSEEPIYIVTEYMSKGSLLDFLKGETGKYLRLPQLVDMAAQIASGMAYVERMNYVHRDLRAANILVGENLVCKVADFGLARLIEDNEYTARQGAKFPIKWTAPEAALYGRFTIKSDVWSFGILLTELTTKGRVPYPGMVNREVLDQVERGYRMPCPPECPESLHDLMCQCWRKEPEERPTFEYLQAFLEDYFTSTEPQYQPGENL
Experiment: c-Src kinase inhibition assay (KinaseProfiler / Kinase Hotspot)
Assay type: biochemical
Conditions: compound at 1 μM; read-out: % Inhibition @1 μM cSrc
Value type: inhibition at 1 µM

Here's what some known entries look like.
// compound CC(C)c1cnc(Nc2nc(N[C@H](C)c3ccc(F)cc3)nc(N3CCN(C)CC3)n2)s1 [Example 4] , assay c-Src kinase (Homo sapiens, UniProt P12931), inhibition at 1 µM value: 50 to 90%

// compound CN1CCN(c2nc(Nc3cc(-c4ccco4)[nH]n3)nc(OCc3ccccc3)n2)CC1 [Example 14] , assay c-Src kinase (Homo sapiens, UniProt P12931), inhibition at 1 µM value: < 50%

---
// compound Cc1cnc(Nc2nc(NCc3ccccc3)nc(N3CCN(C)CC3)n2)s1 [Example 7] , assay c-Src kinase (Homo sapiens, UniProt P12931), inhibition at 1 µM value: 50 to 90%
